Reference source: the supplement of paper PMC10567573

B1: ZNF207 (parent)
chain: CHICHKKLYTGPGLAIHCMQVHKE

Variants of: B1
Assay text: protein stability index of a GFP-peptide fusion (GPS, HEK-293T) (PSI 1-6); higher = more stable;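 note: lentivirally expressed fusions sorted by FACS into six bins by GFP to DsRed ratio, PSI derived from sequencing read proportions per bin multiplied by bin number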
Measurement conditions: c terminus: a fixed tail appended
Reported endpoint: protein stability index

- Variant label: "C4R"
  Reported endpoint: "protein stability index"
  Measured number: 1.94
- Variant label: "C4I"
  Reported endpoint: "protein stability index"
  Measured number: 3.16
- Variant label: "H17K"
  Reported endpoint: "protein stability index"
  Measured number: 2.19
- Variant label: "V21H"
  Reported endpoint: "protein stability index"
  Measured number: 3.44
- Variant label: "L14W"
  Reported endpoint: "protein stability index"
  Measured number: 2.85
- Variant label: "H17C"
  Reported endpoint: "protein stability index"
  Measured number: 3.87
- Variant label: "A15N"
  Reported endpoint: "protein stability index"
  Measured number: 3.7
- Variant label: "K6D"
  Reported endpoint: "protein stability index"
  Measured number: 3.28
- Variant label: "I3R"
  Reported endpoint: "protein stability index"
  Measured number: 2.52
- Variant label: "Y9I"
  Reported endpoint: "protein stability index"
  Measured number: 2.72
- Variant label: "K23Y"
  Reported endpoint: "protein stability index"
  Measured number: 2.19
- Variant label: "K7T"
  Reported endpoint: "protein stability index"
  Measured number: 3.98
- Variant label: "H5M"
  Reported endpoint: "protein stability index"
  Measured number: 3.33
- Variant label: "G13L"
  Reported endpoint: "protein stability index"
  Measured number: 2.9
- Variant label: "C1N"
  Reported endpoint: "protein stability index"
  Measured number: 2.24
- Variant label: "T10K"
  Reported endpoint: "protein stability index"
  Measured number: 2.65
- Variant label: "G13D"
  Reported endpoint: "protein stability index"
  Measured number: 4.82
- Variant label: "L8F"
  Reported endpoint: "protein stability index"
  Measured number: 2.44
- Variant label: "L8W"
  Reported endpoint: "protein stability index"
  Measured number: 2.66
- Variant label: "H22A"
  Reported endpoint: "protein stability index"
  Measured number: 2.65
- Variant label: "C18W"
  Reported endpoint: "protein stability index"
  Measured number: 1.93
- Variant label: "Q20K"
  Reported endpoint: "protein stability index"
  Measured number: 2.75
- Variant label: "K7Q"
  Reported endpoint: "protein stability index"
  Measured number: 4.11
- Variant label: "C1Y"
  Reported endpoint: "protein stability index"
  Measured number: 2.84
- Variant label: "P12I"
  Reported endpoint: "protein stability index"
  Measured number: 3.03
- Variant label: "C18T"
  Reported endpoint: "protein stability index"
  Measured number: 3.02
- Variant label: "C18F"
  Reported endpoint: "protein stability index"
  Measured number: 2.21
- Variant label: "P12T"
  Reported endpoint: "protein stability index"
  Measured number: 3.18
- Variant label: "G13H"
  Reported endpoint: "protein stability index"
  Measured number: 4.02
- Variant label: "H22N"
  Reported endpoint: "protein stability index"
  Measured number: 2.35
- Variant label: "L14I"
  Reported endpoint: "protein stability index"
  Measured number: 3.3
- Variant label: "H5A"
  Reported endpoint: "protein stability index"
  Measured number: 3.83
- Variant label: "C18D"
  Reported endpoint: "protein stability index"
  Measured number: 2.75
- Variant label: "K7G"
  Reported endpoint: "protein stability index"
  Measured number: 3.27
- Variant label: "H17P"
  Reported endpoint: "protein stability index"
  Measured number: 2.78
- Variant label: "L8K"
  Reported endpoint: "protein stability index"
  Measured number: 2.42
- Variant label: "K23A"
  Reported endpoint: "protein stability index"
  Measured number: 3.14
